Beating below threshold, number of observations/total well numbers values, listed per item
# Test system: hiPSC-CMs (iCell-Cardiomyocytes^2)
# cond: 1 µM, 24h

Example entries begin here.
[
  {
    "molecule": "C#Cc1cccc(Nc2ncnc3cc(OCCOC)c(OCCOC)cc23)c1",
    "endpoint_value": "0/5"
  },
  {
    "molecule": "COc1cccc2c1C(=O)c1c(O)c3c(c(O)c1C2=O)C[C@@](O)(C(=O)CO)C[C@@H]3O[C@H]1C[C@H](N)[C@H](O)[C@H](C)O1",
    "endpoint_value": "0/5"
  },
  {
    "molecule": "COc1nc(N)nc2c1ncn2[C@@H]1O[C@H](COP(=O)(N[C@@H](C)C(=O)OCC(C)(C)C)Oc2cccc3ccccc23)[C@@H](O)[C@@]1(C)O (stereo partly shown)",
    "endpoint_value": "0/5"
  },
  {
    "molecule": "N=C(N)c1ccc(OCCCCCOc2ccc(C(=N)N)cc2)cc1",
    "endpoint_value": "0/6"
  },
  {
    "molecule": "COc1cc2c(Nc3ccc(Br)cc3F)ncnc2cc1OCC1CCN(C)CC1",
    "endpoint_value": "0/5"
  },
  {
    "molecule": "CC(C)(Sc1cc(C(C)(C)C)c(O)c(C(C)(C)C)c1)Sc1cc(C(C)(C)C)c(O)c(C(C)(C)C)c1",
    "endpoint_value": "0/4"
  }
]

Exercise: Entry under review: Cc1cn(-c2cc(NC(=O)c3ccc(C)c(Nc4nccc(-c5cccnc5)n4)c3)cc(C(F)(F)F)c2)cn1 . Reported Beating below threshold, number of observations/total well numbers?
Solution: 0/5
